Target: HDAC2 (Homo sapiens, UniProt Q92769)
Construct: purchased Enzo Life Sciences
Sequence (Q92769 whole entry): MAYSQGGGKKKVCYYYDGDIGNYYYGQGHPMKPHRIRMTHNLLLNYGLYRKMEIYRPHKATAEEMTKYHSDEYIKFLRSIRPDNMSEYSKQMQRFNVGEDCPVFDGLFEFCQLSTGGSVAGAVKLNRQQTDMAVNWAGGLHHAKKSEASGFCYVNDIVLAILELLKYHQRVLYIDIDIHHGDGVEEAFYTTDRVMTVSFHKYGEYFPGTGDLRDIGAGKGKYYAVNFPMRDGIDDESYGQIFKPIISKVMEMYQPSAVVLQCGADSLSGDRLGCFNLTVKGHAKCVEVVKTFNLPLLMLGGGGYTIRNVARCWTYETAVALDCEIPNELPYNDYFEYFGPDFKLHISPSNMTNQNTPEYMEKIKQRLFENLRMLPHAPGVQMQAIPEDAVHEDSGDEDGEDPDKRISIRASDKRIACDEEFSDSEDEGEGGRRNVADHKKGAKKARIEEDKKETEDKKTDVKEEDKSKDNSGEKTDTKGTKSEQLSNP
Assay: HDAC Inhibition Screening Assay (FLUOR DE LYS Fluorimetric Drug Discovery Kit), HDAC2
Format: biochemical
Details: 2 μM compound
Value kind: inhibition at 2 µM

Short answer on HDAC2 (Homo sapiens, UniProt Q92769) for Nc1ccccc1NC(=O)c1ccc(COc2ccc3c(c2)CC/C(=C\c2cc(C(F)(F)F)cc(C(F)(F)F)c2)C3=O)cc1 [Compound 66] , inhibition at 2 µM: < 50%

HDAC2 (Homo sapiens, UniProt Q92769) inhibition at 2 µM of Nc1cc(F)ccc1NC(=O)c1ccc(COc2ccc3c(c2)CC(Cc2cc(C(F)(F)F)cc(C(F)(F)F)c2)C3=O)cc1 (stereo not drawn) [Compound 76] is < 50%

# value of inhibition at 2 µM, HDAC2 (Homo sapiens, UniProt Q92769), item COc1ccc2c(c1)CCCC2NC(=O)CCCCCCC(=O)NO (stereo not drawn) [Compound 48] = > 80%

Here O=C(CCCCCCC(=O)NC1CCCc2cc(Br)ccc21)NO (stereo not drawn) [Compound 46] was tested on HDAC2 (Homo sapiens, UniProt Q92769), and its inhibition at 2 µM came to < 50%

// inhibition at 2 µM (HDAC2 (Homo sapiens, UniProt Q92769)) for Nc1cc(F)ccc1NC(=O)/C=C/c1ccc2c(c1)CCC2NCCc1c[nH]c2ccccc12 (stereo not drawn) [Compound 57] = 50 to 80%

inhibition at 2 µM for HDAC2 (Homo sapiens, UniProt Q92769) with input O=C(CCCCC(=O)Nc1ccc2c(c1)CC/C(=C\c1cc(C(F)(F)F)cc(C(F)(F)F)c1)C2=O)NO [Compound 14] equals < 50%

HDAC2 (Homo sapiens, UniProt Q92769) inhibition at 2 µM of O=C(NO)c1ccc(COc2ccc3c(c2)CC(Cc2cc(C(F)(F)F)cc(C(F)(F)F)c2)C3=O)cc1 (stereo not drawn) [Compound 77] is < 50%

Entry COc1ccc2c(c1)CCCC2NC(=O)CCCCCCC(=O)Nc1ccc(F)cc1N (stereo not drawn) [Compound 47] , HDAC2 (Homo sapiens, UniProt Q92769) data, inhibition at 2 µM value: < 50%

Lab entry: HDAC2 (Homo sapiens, UniProt Q92769) assay, molecule Nc1cc(F)ccc1NC(=O)/C=C/c1ccc2c(c1)CCC2NC(=O)c1cc(C(F)(F)F)cc(C(F)(F)F)c1 (stereo not drawn) [Compound 21] , inhibition at 2 µM = < 50%

The molecule O=C(/C=C/c1ccc2c(c1)CCCC2NC(=O)c1cc(C(F)(F)F)cc(C(F)(F)F)c1)NO (stereo not drawn) [Compound 24] on HDAC2 (Homo sapiens, UniProt Q92769): inhibition at 2 µM was < 50%

Form field inhibition at 2 µM for item O=C(/C=C/c1ccc2c(c1)CCC2NCCc1ccc(F)cc1)NO (stereo not drawn) [Compound 53] on HDAC2 (Homo sapiens, UniProt Q92769): > 80%

Record for O=C(/C=C/c1ccc2c(c1)CCC2N1CC(=O)N(c2cc(Cl)cc(Cl)c2)C1=O)NO (stereo not drawn) [Compound 37] under target or system HDAC2 (Homo sapiens, UniProt Q92769): inhibition at 2 µM reported as > 80%

HDAC2 (Homo sapiens, UniProt Q92769) data for Nc1cc(F)ccc1NC(=O)CCCCCCC(=O)Nc1ccc2c(c1)CC/C(=C\c1cc(C(F)(F)F)cc(C(F)(F)F)c1)C2=O [Compound 5] ; its inhibition at 2 µM: < 50%

I looked up O=C(/C=C/c1ccc2c(c1)CCC2NCCc1cc(Cl)cc(Cl)c1)NO (stereo not drawn) [Compound 55] and its inhibition at 2 µM for HDAC2 (Homo sapiens, UniProt Q92769) was > 80%

// molecule O=C(/C=C/c1ccc2c(c1)CCCC2OCc1cc(C(F)(F)F)cc(C(F)(F)F)c1)NO (stereo not drawn) [Compound 36] , assay HDAC2 (Homo sapiens, UniProt Q92769), inhibition at 2 µM value: 50 to 80%

Test item Cc1[nH]c2ccccc2c1CCNC1CCCc2cc(/C=C/C(=O)Nc3ccc(F)cc3N)ccc21 (stereo not drawn) [Compound 62] ; HDAC2 (Homo sapiens, UniProt Q92769); reported inhibition at 2 µM was > 80%

Record Nc1cc(F)ccc1NC(=O)CCCCCCC(=O)NC1CCc2cc(Br)ccc21 (stereo not drawn) [Compound 39] / HDAC2 (Homo sapiens, UniProt Q92769), inhibition at 2 µM recorded as < 50%

The recorded inhibition at 2 µM with HDAC2 (Homo sapiens, UniProt Q92769) for O=C(CCCCCCC(=O)NC1CCc2cc(Br)ccc21)NO (stereo not drawn) [Compound 40] was > 80%
